Provenance of the data: patent US20190133930A1

Please go through the items and note down their Papp A→B at 30 min, 10 mM.
test details: MatTek EpiAirway cell monolayer permeability of local anesthetics after excipient pre-treatment
Type: in vitro ADME
measurement parameters: human, pH 6, EpiAirway, 10 mM test article, donor pH 6.0, 37° C., 0.5 hr; 20 min pre-treatment with 0.5% Lysophosphatidylcholine
Structures can show the parent of a compound that is named as a salt.
Kindly answer with a numeric value in ×10⁻⁶ cm/s, unit omitted.

For CCCCNc1ccc(C(=O)OCCN(C)C)cc1 [Tetracaine, Tetracaine HCl] , what is its reported Papp A→B at 30 min, 10 mM? 71.6

For CCCCN1CCCCC1C(=O)Nc1c(C)cccc1C (centres unmarked) [Bupivacaine, Bupivacaine HCl] , what is its reported Papp A→B at 30 min, 10 mM? 173

###

test details: MatTek EpiAirway cell monolayer permeability of local anesthetics after excipient pre-treatment
Assay type: in vitro ADME
measurement parameters: human, pH 6, EpiAirway, 10 mM test article, donor pH 6.0, 37° C., 0.5 hr; 20 min pre-treatment with 0.5% Polyoxyethylene 9 Lauryl Ether
Structures can show the parent of a compound that is named as a salt.
Please go through the items and note down their Papp A→B at 30 min, 10 mM.
Kindly answer with a numeric value in ×10⁻⁶ cm/s, unit omitted.

For CCCCN1CCCCC1C(=O)Nc1c(C)cccc1C (centres unmarked) [Bupivacaine, Bupivacaine HCl] , what is its reported Papp A→B at 30 min, 10 mM? 189

For CCCCNc1ccc(C(=O)OCCN(C)C)cc1 [Tetracaine, Tetracaine HCl] , what is its reported Papp A→B at 30 min, 10 mM? 126

###

test details: Caco-2 cell monolayer apical to basolateral permeability of local anesthetic after excipient pre-treatment
Format: in vitro ADME
measurement parameters: human, Caco-2, pH 6, Caco-2, A→B, 10 mM Tetracaine HCl, apical pH 6.0, 0.5 hr; 20 min pre-treatment with 1.0% Sodium Caprate
Where a name gives a salt, the structure may show the parent alone.
reported metric: Papp A→B at 0.5 hr, 10 mM (×10⁻⁶ cm/s)
Kindly answer with a numeric value in ×10⁻⁶ cm/s, unit omitted.

For CCCCNc1ccc(C(=O)OCCN(C)C)cc1 [Tetracaine, Tetracaine HCl] , what is its reported Papp A→B at 0.5 hr, 10 mM? 54.8

###

test details: MatTek EpiAirway cell monolayer permeability of local anesthetics after excipient pre-treatment
Format: in vitro ADME
measurement parameters: human, pH 6, EpiAirway, 10 mM test article, donor pH 6.0, 37° C., 0.5 hr; 20 min pre-treatment with 0.5% Sodium Deoxycholate
Structures can show the parent of a compound that is named as a salt.
Please go through the items and note down their Papp A→B at 30 min, 10 mM.
Kindly answer with a numeric value in ×10⁻⁶ cm/s, unit omitted.

For CCCCNc1ccc(C(=O)OCCN(C)C)cc1 [Tetracaine, Tetracaine HCl] , what is its reported Papp A→B at 30 min, 10 mM? 155

For CCCCN1CCCCC1C(=O)Nc1c(C)cccc1C (centres unmarked) [Bupivacaine, Bupivacaine HCl] , what is its reported Papp A→B at 30 min, 10 mM? 218

###

test details: Caco-2 cell monolayer apical to basolateral permeability of local anesthetic after excipient pre-treatment
Type: in vitro ADME
measurement parameters: human, Caco-2, pH 6, Caco-2, A→B, 10 mM Tetracaine HCl, apical pH 6.0, 0.5 hr; 20 min pre-treatment with 2.0% Sodium Caprate
Where a name gives a salt, the structure may show the parent alone.
reported metric: Papp A→B at 0.5 hr, 10 mM (×10⁻⁶ cm/s)
Kindly answer with a numeric value in ×10⁻⁶ cm/s, unit omitted.

For CCCCNc1ccc(C(=O)OCCN(C)C)cc1 [Tetracaine, Tetracaine HCl] , what is its reported Papp A→B at 0.5 hr, 10 mM? 139

###

test details: Caco-2 cell monolayer apical to basolateral permeability of local anesthetic after excipient pre-treatment
Type: in vitro ADME
measurement parameters: human, Caco-2, pH 6, Caco-2, A→B, 10 mM Tetracaine HCl, apical pH 6.0, 0.5 hr; 20 min pre-treatment with 0.5% Sodium Caprate
Structures can show the parent of a compound that is named as a salt.
reported metric: Papp A→B at 0.5 hr, 10 mM (×10⁻⁶ cm/s)
Kindly answer with a numeric value in ×10⁻⁶ cm/s, unit omitted.

For CCCCNc1ccc(C(=O)OCCN(C)C)cc1 [Tetracaine, Tetracaine HCl] , what is its reported Papp A→B at 0.5 hr, 10 mM? 55.9

###

test details: MatTek EpiAirway cell monolayer permeability of local anesthetics after excipient pre-treatment
Assay type: in vitro ADME
measurement parameters: human, pH 6, EpiAirway, 10 mM test article, donor pH 6.0, 37° C., 0.5 hr; 20 min pre-treatment with 0.5% Sodium Caprate
Structures can show the parent of a compound that is named as a salt.
Please go through the items and note down their Papp A→B at 30 min, 10 mM.
Kindly answer with a numeric value in ×10⁻⁶ cm/s, unit omitted.

For CCCCNc1ccc(C(=O)OCCN(C)C)cc1 [Tetracaine, Tetracaine HCl] , what is its reported Papp A→B at 30 min, 10 mM? 56.8

For CCCCN1CCCCC1C(=O)Nc1c(C)cccc1C (centres unmarked) [Bupivacaine, Bupivacaine HCl] , what is its reported Papp A→B at 30 min, 10 mM? 116

###

test details: Caco-2 cell monolayer apical to basolateral permeability of local anesthetic after excipient pre-treatment
Assay type: in vitro ADME
measurement parameters: human, Caco-2, pH 6, Caco-2, A→B, 10 mM Tetracaine HCl, apical pH 6.0, 0.5 hr; excipient: None
Structures can show the parent of a compound that is named as a salt.
reported metric: Papp A→B at 0.5 hr, 10 mM (×10⁻⁶ cm/s)
Kindly answer with a numeric value in ×10⁻⁶ cm/s, unit omitted.

For CCCCNc1ccc(C(=O)OCCN(C)C)cc1 [Tetracaine, Tetracaine HCl] , what is its reported Papp A→B at 0.5 hr, 10 mM? 17.7

###

test details: MatTek EpiAirway cell monolayer permeability of local anesthetics after excipient pre-treatment
Type: in vitro ADME
measurement parameters: human, pH 6, EpiAirway, 10 mM test article, donor pH 6.0, 37° C., 0.5 hr; excipient: none
Counter-ions that a name gives are not always drawn.
reported metric: Papp A→B at 30 min, 10 mM (×10⁻⁶ cm/s)
Kindly answer with a numeric value in ×10⁻⁶ cm/s, unit omitted.

For CCCCN1CCCCC1C(=O)Nc1c(C)cccc1C (centres unmarked) [Bupivacaine, Bupivacaine HCl] , what is its reported Papp A→B at 30 min, 10 mM? 19.2

For CCCCNc1ccc(C(=O)OCCN(C)C)cc1 [Tetracaine, Tetracaine HCl] , what is its reported Papp A→B at 30 min, 10 mM? 10.8
